Recorded pIC50 values for a group of molecules are listed next.
test: Antiinflammatory activity in human neutrophils assessed as inhibition of fMet-Leu-Phe/Cytochalasin B-induced superoxide anion generation treated 5 mins before fMet-Leu-Phe/Cytochalasin B challenge by spectrophotometry; format: functional, cell-based; settings: Neutrophil
pIC50: −log10 of the molar value.

{"molecule": "c1ccc2c(c1)[I+]c1ccccc1-2 [DIPHENYLENEIODONIUM]", "rel": "=", "pIC50": 5.77}
{"molecule": "C=C(C)[C@@H](CC=C(C)C)C[C@@]12C[C@H]3C[C@@H](C(C)(C)O)[C@](C(=O)c4ccccc4)(C1=O)C(=O)[C@@](CC(O)C(C)(C)O)(C2=O)C3(C)C (stereo partly specified) [GARCIMULTIFLORONE C]", "rel": "=", "pIC50": 5.14}
{"molecule": "CC(C)=CCC1=C2OC(C)(C)[C@@H](CC=C(C)C)C[C@@]23C[C@@H](CC=C(C)C)C(C)(C)[C@@](C(=O)c2ccccc2)(C1=O)C3=O [GARCIMULTIFLORONE A]", "rel": "=", "pIC50": 5.25}
{"molecule": "COc1cc2ccc(=O)oc2cc1OC [SCOPARONE]", "rel": "<", "pIC50": 4.52}
{"molecule": "CC(C)=CC[C@H]1C[C@@]23C[C@@H](CC=C(C)C)C(C)(C)[C@@](CC=C(C)C)(C(=O)C(C(=O)c4ccccc4)=C2OC1(C)C)C3=O", "rel": "=", "pIC50": 6.06}
{"molecule": "CC[C@H](CC[C@@H](C)[C@H]1CC[C@H]2[C@@H]3CC=C4CC(=O)CC[C@]4(C)[C@H]3CC[C@]12C)C(C)C [BETA-SITOSTENONE]", "rel": "<", "pIC50": 4.52}
{"molecule": "CC(C)=CCC/C(C)=C/CC/C(C)=C/CC/C=C(\\C)CC/C=C(\\C)CCC=C(C)C [SQUALENE]", "rel": "<", "pIC50": 4.52}
{"molecule": "CC(C)=CCC/C(C)=C/CC/C(C)=C/CC[C@]1(C)CCc2cc(O)cc(C)c2O1 [DELTA-TOCOTRIENOL]", "rel": "=", "pIC50": 4.83}
{"molecule": "C=C(C)[C@@H](CC=C(C)C)C[C@@]12C[C@@H](CC=C(C)C)C(C)(C)[C@]3(C=CC(C)(C)OC3=C(C(=O)c3ccccc3)C1=O)C2=O [GARCIMULTIFLORONE B]", "rel": "=", "pIC50": 6.96}
{"molecule": "COc1cc2ccc(=O)oc2c(OC)c1OC [FRAXIDIN METHYL ETHER]", "rel": "<", "pIC50": 4.52}
{"molecule": "C=C(C)[C@@H](CC=C(C)C)C[C@@]12C[C@@H](CC=C(C)C)C(C)(C)[C@]3(C=CC(C)(C)OC3=C(C(=O)c3cccc(O)c3)C1=O)C2=O [13-HYDROXYGARCIMULTIFLORONE B]", "rel": "=", "pIC50": 6.40}
